# Study System: RSV F protein of subtype B (18537) on recombinant mKate-RSV virus (Respiratory syncytial virus subtype B …, UniProt P13843 26-574)
# Method Notes: cell-based or functional assay
What Neut IC50 (µg/ml) subtype B was measured for each of the following?
Answer with a number only, understood to be in µg/mL.

Look at this binder and give its reported Neut IC50 (µg/ml) subtype B. ADI-18890 (antibody, V domains shown, full-length IgG from yeast) VH: QVQLVQSGAEVKRPGSSVKVSCKASGGTFRGYHISWLRQAPGQGLEWLGGITHLFGTVSYAPKFQGRVTITADASTGTLYMVLNSLKPEDTAIYYCARDAYEVWTGSYLPPFDYWGQGTLVTVSS VL: ETTLTQSPGTLSLSPGERATLSCRASQTVTSNYLAWYQQKPGQAPRLLIYDALTRATGIPDRFSGSGSGTDFTLTISRLEPEDFALYYCQQYGSSFLTFGGGTKVDIK
0.041

ADI-18905 (antibody, V domains shown) VH: EVQLVESGPTLVKPSETLSLTCVVSGGSVYRSSNYWAWIRQPPGKGLEWIGSVYHSGNPYSNPSLQSRVSVSIDTSKNQFSLKLYSVTAADSAIYYCACKRADADDVDYVAGLTGFPWYFDVWGRGTLVTVSS VL: EIVLTQSPSTLSASVGDRVTITCRASQSISSWLAWYQQKPGKTPKLLIYKASTLESGVPSRFSGSGSGTEFTLTISSLQPDDFATYYCQQYHVYFPLTFGGGTKVEIK , same question.
3.68

ADI-18936 (antibody, V domains shown, full-length IgG from yeast) VH: EVQLLESGAEVKKPGASVRVSCKASGYTFTDYFMNWVRQAPGGGLEWMGWVNPLSGATKYAQKFQGRVTMTTDTSITTGYLDLRSLRVDDTAIYFCASQSSPYTPGAMGVWGQGTTVTVSS VL: DIQVTQSPSSLSASVGDRVTITCRASQSISGYLSWYQQKPGKAPNLLIYATSNLYSGVPSRFSGRDSGTDFTLTITSLQPEDFATYFCQLNSGALFTFGPGTKVEIK , same question.
0.035

ADI-18910 (antibody, V domains shown, full-length IgG from yeast; also called Antibody Number 265; Ab # 265) VH: QVQLVQSGAEVKKPGSSVKVSCKASGGTFSSYAISWVRQAPGQGLEWMGGIIPMFDIVDYAQKFQGRVTITADESTNTAYMELTSLRSEDTAVYYCARTAALGPPGTIVGYMDVWGKGTTVTVSS VL: DIVMTQSPLSLPVTPGEPASISCRSSQSLLQSNGYNYLDWYLQKPGQAPQLLIYLGSNRASGVPDKFSGSGSGTDFTLKISRVEAEDVGVYYCMQTLQTPWTFGQGTKVEIK , same question.
0.767
